# Tested on: BEL-7402 (liver) human carcinoma cell line
# EXPERIMENT_DESCRIPTION: MTT cytotoxicity assay, BEL-7402 cells
# Type: cell-based
# TEST_CONTEXT: Homo sapiens, 48 h exposure
Simple rule here: IC50 less than 30 µM is criterion met, otherwise criterion not met.

{"columns": ["COMPOUND", "STUDY_SYSTEM", "GROUP"],
 "data": [
  ["CC(C)c1ccc2c(c1)CCC1C(C)(C(=O)OCC(=O)NN=Cc3ccccc3[N+](=O)[O-])CCCC21C (centres unmarked)", "BEL-7402 (liver) human carcinoma cell line", "criterion not met"]
]}

q: Please check: IC50 for CC(C)c1ccc2c(c1)CCC1C(C)(C(=O)OCC(=O)NN=Cc3ccc(N(C)C)cc3)CCCC21C (centres unmarked) , strictly under 30 µM or not?
a: criterion met

q: # iterate: CC(C)c1ccc2c(c1)CCC1C(C)(C(=O)OCC(=O)NN=Cc3ccccc3O)CCCC21C (centres unmarked)
a: criterion not met

q: # iterate: CC(C)c1ccc2c(c1)CC[C@H]1[C@](C)(C(=O)O)CCC[C@]21C [DHA, dehydroabietic acid]
a: criterion not met

q: # iterate: CC(C)c1ccc2c(c1)CCC1C(C)(C(=O)OCC(=O)NN=Cc3ccc([N+](=O)[O-])cc3)CCCC21C (centres unmarked)
a: criterion met

q: # iterate: COc1ccc(C=NNC(=O)COC(=O)C2(C)CCCC3(C)c4ccc(C(C)C)cc4CCC23)cc1 (centres unmarked)
a: criterion not met

q: # iterate: CC(C)c1ccc2c(c1)CCC1C(C)(C(=O)OCC(=O)NN=C/C=C/c3ccccc3)CCCC21C (centres unmarked)
a: criterion met

q: # iterate: CC(C)c1ccc2c(c1)CCC1C(C)(C(=O)OCC(=O)NN=Cc3ccc(Br)cc3)CCCC21C (centres unmarked)
a: criterion met

This collection of values is drawn from paper PMC6152134.
